Target Under Test: Human immunodeficiency virus type 1 reverse transcriptase (Human immunodeficiency virus 1, UniProt Q72547)
Assay Protocol: Inhibition of HIV1 reverse transcriptase in […]
Format: cell-based
pIC50: −log10 of the molar value.
Reported pIC50 values for the following compounds.

{"Smi": "CCc1c(C)[nH]c(=O)c(N2CCOCC2)c1Cc1cc(C)cc(C)c1", "pIC50": 6.80}
{"Smi": "CCc1c(C)[nH]c(=O)c(NC(C)=O)c1Cc1cc(C)cc(C)c1", "pIC50": 6.40}
{"Smi": "CCc1c(C)[nH]c(=O)c(NC(=S)Nc2ccccc2)c1Cc1cccc(C)c1", "pIC50": 5.50}
{"Smi": "CCc1c(C)[nH]c(=O)c(NCc2ccccc2)c1Cc1cc(C)cc(C)c1", "pIC50": 6.60}
{"Smi": "CCc1c(C)[nH]c(=O)c(N(C)CCO)c1Cc1cccc(C)c1", "pIC50": 8.30}
{"Smi": "CCc1c(C)[nH]c(=O)c(N(C)CCC#N)c1Cc1cccc(C)c1", "pIC50": 7.80}
{"Smi": "CCc1c(C)[nH]c(=O)c(NC)c1Cc1cc(C)cc(C)c1", "pIC50": 8.00}
{"Smi": "CCc1c(C)[nH]c(=O)c(N(C)CC)c1Cc1cc(C)cc(C)c1", "pIC50": 8.10}
{"Smi": "CCc1c(C)[nH]c(=O)c(N(C)CC#N)c1Cc1cccc(C)c1", "pIC50": 8.40}
{"Smi": "CCc1c(C)[nH]c(=O)c(N(C)CCCCCO)c1Cc1cc(C)cc(C)c1", "pIC50": 8.40}
{"Smi": "CCOCCN(C)c1c(Cc2cccc(C)c2)c(CC)c(C)[nH]c1=O", "pIC50": 7.89}

###

Reported pIC50 values for the following molecules.
Target Under Test: Human immunodeficiency virus type 1 reverse transcriptase (Human immunodeficiency virus 1, UniProt Q72547)
Assay Protocol: Inhibition of HIV1 reverse transcriptase in […]
pIC50: −log10 of the molar value.
Value Type: pIC50

{"Smi": "CCCN(C)c1c(Cc2cc(C)cc(C)c2)c(CC)c(C)[nH]c1=O", "Value Type": "pIC50", "Value Measured": 7.80}
{"Smi": "CCc1c(C)[nH]c(=O)c(N(C)CCCC#N)c1Cc1cccc(C)c1", "Value Type": "pIC50", "Value Measured": 8.30}
{"Smi": "CCCCN(CCCC)c1c(Cc2cc(C)cc(C)c2)c(CC)c(C)[nH]c1=O", "Value Type": "pIC50", "Value Measured": 4.30}
{"Smi": "CCCC(=O)Nc1c(Cc2cc(C)cc(C)c2)c(CC)c(C)[nH]c1=O", "Value Type": "pIC50", "Value Measured": 4.00}
{"Smi": "CCc1c(C)[nH]c(=O)c(NC(N)=S)c1Cc1cccc(C)c1", "Value Type": "pIC50", "Value Measured": 6.50}
{"Smi": "CCNc1c(Cc2cc(C)cc(C)c2)c(CC)c(C)[nH]c1=O", "Value Type": "pIC50", "Value Measured": 7.80}
{"Smi": "CCc1c(C)[nH]c(=O)c(N(C)CC)c1Cc1cccc(/C=C/C#N)c1", "Value Type": "pIC50", "Value Measured": 9.00}
{"Smi": "CCc1c(C)[nH]c(=O)c(N(C)CCCO)c1Cc1cccc(C)c1", "Value Type": "pIC50", "Value Measured": 8.52}
{"Smi": "CCc1c(C)[nH]c(=O)c(N2CCCCC2)c1Cc1cc(C)cc(C)c1", "Value Type": "pIC50", "Value Measured": 6.20}
{"Smi": "CCc1c(C)[nH]c(=O)c(-n2cccc2)c1Cc1cc(C)cc(C)c1", "Value Type": "pIC50", "Value Measured": 7.90}
{"Smi": "CCc1c(C)[nH]c(=O)c(N(C)CCOC)c1Cc1cccc(C)c1", "Value Type": "pIC50", "Value Measured": 9.00}

###

Target Under Test: Human immunodeficiency virus type 1 reverse transcriptase (Human immunodeficiency virus 1, UniProt Q72547)
Assay Protocol: Inhibition of HIV1 reverse transcriptase in […]
Categories are defined by ranges of IC50, namely bottom bin = under 10 nM, middle bin = from 10 nM up to 100 nM, top bin = 100 nM and over

{"Compound": "CCc1c(C)[nH]c(=O)c(N(C)CCCSC)c1Cc1cc(C)cc(C)c1", "Assigned Class": "middle bin"}
{"Compound": "CCc1c(C)[nH]c(=O)c(N(C)CCOC)c1Cc1cc(C)cc(C)c1", "Assigned Class": "bottom bin"}
{"Compound": "CCc1c(C)[nH]c(=O)c(NC=O)c1Cc1cc(C)cc(C)c1", "Assigned Class": "middle bin"}
{"Compound": "CCc1c(C)[nH]c(=O)c(N(Cc2ccccc2)Cc2ccccc2)c1Cc1cc(C)cc(C)c1", "Assigned Class": "top bin"}
{"Compound": "CCc1c(C)[nH]c(=O)c(N(C)C(C)COC)c1Cc1cc(C)cc(C)c1 (configuration not stated)", "Assigned Class": "bottom bin"}
{"Compound": "CCc1c(C)[nH]c(=O)c(N(C)CCOC)c1Cc1cccc(/C=C/C#N)c1", "Assigned Class": "bottom bin"}
{"Compound": "CCCCNc1c(Cc2cc(C)cc(C)c2)c(CC)c(C)[nH]c1=O", "Assigned Class": "top bin"}
{"Compound": "CCNC(=S)Nc1c(Cc2cccc(C)c2)c(CC)c(C)[nH]c1=O", "Assigned Class": "top bin"}
{"Compound": "CCCNc1c(Cc2cc(C)cc(C)c2)c(CC)c(C)[nH]c1=O", "Assigned Class": "middle bin"}
{"Compound": "CCc1c(C)[nH]c(=O)c(N(CC)CC)c1Cc1cc(C)cc(C)c1", "Assigned Class": "middle bin"}
{"Compound": "CCC(=O)Nc1c(Cc2cc(C)cc(C)c2)c(CC)c(C)[nH]c1=O", "Assigned Class": "top bin"}
